# systemName: T1, 6xHis-IE2(87-579) (Human cytomegalovirus, UniProt Q6SWP7 87-579)
# T1 sequence: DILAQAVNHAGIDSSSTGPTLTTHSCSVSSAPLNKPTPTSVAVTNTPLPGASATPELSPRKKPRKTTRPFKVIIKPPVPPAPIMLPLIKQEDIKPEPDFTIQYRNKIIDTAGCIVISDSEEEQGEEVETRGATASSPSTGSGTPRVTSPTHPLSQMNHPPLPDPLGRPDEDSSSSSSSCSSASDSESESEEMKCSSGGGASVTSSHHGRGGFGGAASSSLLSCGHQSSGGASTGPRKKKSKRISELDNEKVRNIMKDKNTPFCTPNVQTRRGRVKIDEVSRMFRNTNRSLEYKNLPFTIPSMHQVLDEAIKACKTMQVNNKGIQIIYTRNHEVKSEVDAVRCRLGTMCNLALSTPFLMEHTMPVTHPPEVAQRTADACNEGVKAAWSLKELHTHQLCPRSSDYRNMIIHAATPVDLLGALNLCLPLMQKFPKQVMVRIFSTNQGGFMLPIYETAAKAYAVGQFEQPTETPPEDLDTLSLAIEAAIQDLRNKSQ
# experimentSummary: ELISA

# binder, Kd / nM
data = [
    ("AAGGGGGGGGGTGAGGGGGGGGGGTT (structured_DNA) [oriG4-1]", 123),
]
